Cited source for all entries: the supplement of paper PMC10126150

System: ATP;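 also: ATP exposure 15 min at 22 °C before imaging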
Experiment: switch fluorescence ratio, 500 uM ATP over buffer (Cy3 cluster intensity, sum of 5 cycles each) (fold (ratio)); higher = stronger signal-on switching upon ATP binding; sequences stand for … in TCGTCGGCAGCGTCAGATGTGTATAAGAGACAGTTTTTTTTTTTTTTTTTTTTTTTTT…TC
Conditions: aptamer strand: ATP DNA aptamer (quencher-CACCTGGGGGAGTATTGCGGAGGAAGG + anchor), 100 nM annealed; ATP concentration: 500 uM
quantity.name: switch fluorescence ratio

monomer_sequence=GGGGTGTAAT assay_target=ATP quantity_name="switch fluorescence ratio" experimental_result=1.01
monomer_sequence=ACTACTGACA assay_target=ATP quantity_name="switch fluorescence ratio" experimental_result=1.24
monomer_sequence=TTTTGGTGAG assay_target=ATP quantity_name="switch fluorescence ratio" experimental_result=0.972
